Assay: Observed clearance in ICR (CD-1) mouse at 1 mg/kg, iv measured upto 24 hrs
Assay type: ADME, organism-based
Design: dose 1 mg/kg, time < 24 hrs, route iv
Conditions: in vivo, route iv, dose 1 mg/kg, time < 24 hrs, read-out: CL
clearance: recorded values

[
  {
    "Smiles Data": "C[C@@H]1[C@H](O)[C@@H](C)/C=C/C=C/C=C/C=C/C=C/C=C/C=C/[C@H](O[C@@H]2O[C@H](C)[C@@H](O)[C@H](NC(=O)CN)[C@@H]2O)C[C@@H]2O[C@](O)(C[C@@H](O)C[C@@H](O)[C@H](O)CC[C@@H](O)C[C@@H](O)CC(=O)O[C@H]1C)C[C@H](O)[C@H]2C(=O)N1CCN(CCO)CC1",
    "clearance [mL/min/kg]": 4.85
  },
  {
    "Smiles Data": "C[C@@H]1[C@H](O)[C@@H](C)/C=C/C=C/C=C/C=C/C=C/C=C/C=C/[C@H](O[C@@H]2O[C@H](C)[C@@H](O)[C@H](NC(=O)CCN)[C@@H]2O)C[C@@H]2O[C@](O)(C[C@@H](O)C[C@@H](O)[C@H](O)CC[C@@H](O)C[C@@H](O)CC(=O)O[C@H]1C)C[C@H](O)[C@H]2C(=O)N1CCN(CCO)CC1",
    "clearance [mL/min/kg]": 2.7
  },
  {
    "Smiles Data": "CNCC(=O)N[C@@H]1[C@H](O)[C@H](O[C@H]2/C=C/C=C/C=C/C=C/C=C/C=C/C=C/[C@H](C)[C@@H](O)[C@@H](C)[C@H](C)OC(=O)C[C@H](O)C[C@H](O)CC[C@@H](O)[C@H](O)C[C@H](O)C[C@]3(O)C[C@H](O)[C@@H](C(=O)NCCN)[C@H](C2)O3)O[C@H](C)[C@H]1O",
    "clearance [mL/min/kg]": 0.53
  },
  {
    "Smiles Data": "C[C@@H]1[C@H](O)[C@@H](C)/C=C/C=C/C=C/C=C/C=C/C=C/C=C/[C@H](O[C@@H]2O[C@H](C)[C@@H](O)[C@H](N)[C@@H]2O)C[C@@H]2O[C@](O)(C[C@@H](O)C[C@@H](O)[C@H](O)CC[C@@H](O)C[C@@H](O)CC(=O)O[C@H]1C)C[C@H](O)[C@H]2C(=O)NCCN",
    "clearance [mL/min/kg]": 0.896
  },
  {
    "Smiles Data": "CNCC(=O)N[C@@H]1[C@H](O)[C@H](O[C@H]2/C=C/C=C/C=C/C=C/C=C/C=C/C=C/[C@H](C)[C@@H](O)[C@@H](C)[C@H](C)OC(=O)C[C@H](O)C[C@H](O)CC[C@@H](O)[C@H](O)C[C@H](O)C[C@]3(O)C[C@H](O)[C@@H](C(=O)N4CCN(C(C)(C)CO)CC4)[C@H](C2)O3)O[C@H](C)[C@H]1O",
    "clearance [mL/min/kg]": 0.95
  },
  {
    "Smiles Data": "C[C@@H]1[C@H](O)[C@@H](C)/C=C/C=C/C=C/C=C/C=C/C=C/C=C/[C@H](O[C@@H]2O[C@H](C)[C@@H](O)[C@H](NC(=O)CN)[C@@H]2O)C[C@@H]2O[C@](O)(C[C@@H](O)C[C@@H](O)[C@H](O)CC[C@@H](O)C[C@@H](O)CC(=O)O[C@H]1C)C[C@H](O)[C@H]2C(=O)NCCN",
    "clearance [mL/min/kg]": 0.913
  }
]
